TARGET OF ASSAY: T1, human TIGIT expressed on HEK293A cells (human, UniProt Q495A1 22-244)
T1 sequence: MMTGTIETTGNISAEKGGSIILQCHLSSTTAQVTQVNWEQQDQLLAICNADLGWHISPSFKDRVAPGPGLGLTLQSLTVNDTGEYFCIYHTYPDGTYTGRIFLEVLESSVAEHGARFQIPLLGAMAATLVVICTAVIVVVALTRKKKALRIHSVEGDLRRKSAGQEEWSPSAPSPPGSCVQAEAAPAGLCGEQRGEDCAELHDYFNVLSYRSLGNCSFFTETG
PROCEDURE DETAILS: cell-based or functional assay
OUTCOME MEASURE: NK92-mediated ADCC against HEK293A/human TIGIT cells, EC50 (pM)

| BINDER | QUANTITATIVE READOUT |
| --- | --- |
| 70E11-VH1VL1 (antibody, human IgG1, kappa, V domains shown, humanized, human IgG1/kappa) VH: QVQLVQSGAEVKKPGASVKVSCKASGYTFTSYNVHWVRQAPGQGLEWMGTIYPGNLATSYNQKFKGRVTMTRDTSTSTVYMELSSLRSEDTAVYYCARSGTMDYWGQGTTVTVSS VL: EIVLTQSPGTLSLSPGERATLSCRASSSISSTYLHWYQQKPGQAPRLLIYNTQNLASGIPDRFSGSGSGTDFTLTISRLEPEDFAVYYCQQFGGYPLITFGAGTKLELKR | 4.36 |
